// reported AUC per item
experimental details: Pharmacokinetics in mice (blood, UPLC-MS/MS)
Format: in vivo, mouse
conditions used: mouse, whole blood; male C57Bl/6 mice, intravenously 2 mg/kg or orally 10 mg/kg, blood
quantity: AUC (ng·h/mL)

[[record]]
chemical_smiles = "O=C(O)[C@@H]1CCCN(S(=O)(=O)c2ccccc2C(F)(F)F)C1"
quantity = "AUC"
value_unit = "ng·h/mL"
numeric_readout = 24200

[[record]]
chemical_smiles = "O=C(O)[C@H]1CCCN(S(=O)(=O)c2ccccc2C(F)(F)F)C1"
quantity = "AUC"
value_unit = "ng·h/mL"
numeric_readout = 54200


###

experimental details: Plasma protein binding by rapid equilibrium dialysis, human plasma
Assay type: in vitro ADME
conditions used: 37° C.
Experimental: The extent to which (S)-1-((2-(trifluoromethyl)phenyl)sulfonyl)piperidine-3-carboxylic acid and (R)-1-((2-(trifluoromethyl)phenyl)sulfonyl)piperidine-3-carboxylic acid bound to plasma proteins such as albumin and alpha-1 acid glycoprotein within human or mouse blood was determined by rapid equilibrium dialysis. Compounds were incubated at 5 μM for 4 hours at 37° C. […]
quantity: fraction unbound at 4 h, 5 μM

[[record]]
chemical_smiles = "O=C(O)[C@H]1CCCN(S(=O)(=O)c2ccccc2C(F)(F)F)C1"
numeric_readout = 0.085

[[record]]
chemical_smiles = "O=C(O)[C@@H]1CCCN(S(=O)(=O)c2ccccc2C(F)(F)F)C1"
numeric_readout = 0.095

